Test system: HCT-116
Experiment: NCI tumour cell line growth inhibition, 48 h
The source made the active and inactive calls. No stated cut-off is given here; in the data, active = GI50 up to about 1.1 µM and inactive = higher.
MEASURED ATTRIBUTE: GI50

Use the examples below as a reference point.
COMPOUND	GI50
CC(O)CCC(=O)c1ccoc1 (stereo not drawn)	5740 µM (inactive)
O=C1NC2C(O)CCCCC2C12CCCCC2 (stereo not drawn)	> 100 µM (inactive)
C=C(C=O)c1c2c(nc3ccccc13)C(=O)c1ccccc1C2=O	0.619 µM (active)
COc1cc2c(c(OC)c1OC)-c1ccc(SC)c(=O)cc1[C@@H](NC(=O)c1ccc(Cl)cc1)CC2	< 0.01 µM (active)
CNC(=S)N1CCN(C(C)=O)C1=S	> 100 µM (inactive)

Shift focus to the following entry.
// recorded GI50 for c1ccc(CNc2ncnc3nn[nH]c23)cc1 : > 100 µM (inactive)
